Reference source: paper PMC9482650

Target: NOS1, P29475
Sequence (P29475 9-101): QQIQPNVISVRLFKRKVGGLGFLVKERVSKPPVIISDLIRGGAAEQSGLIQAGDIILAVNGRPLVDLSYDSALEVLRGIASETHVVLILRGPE
Test: holdup assay
Set-up: key: below the threshold = too weak to quantify, mostly under pKd 3.1 to 4
Conditions: plain residues with an end cap or a label only (N-terminal biotin on a linker: ado-ado)
I'd be grateful if you could share measured pKd for these entries.
Quick one: just the number, no unit, thanks!

Given the entry RGKNRRQSIF [CDK18, Q07002] , report its measured pKd.
3.75

Given the entry NISARRFTLC [FAM167B, Q9BTA0] , report its measured pKd.
3.81

Given the entry WAKEKQHTRL [SLC17A1, Q14916] , report its measured pKd.
3.71

Given the entry NKSEPFLTWL [WWTR1, Q9GZV5] , report its measured pKd.
4.05

Given the entry VCMGDHWFDV [PRKN, O60260] , report its measured pKd.
3.51
